method: agonists of NOTCH signaling (AID 434982)
protocol conditions: NOTCH signaling luciferase reporter cells, luminescence; at 2.5 µM; active compounds read high
The whole screen tested about 15,000 compounds, of which about 60 (0.4%) were called active. Many of the other results were omitted from the sample, so actives are more common in it than they were.
recorded metric: activation (%)
Express your answer in %, writing the number without its unit.

Exercise: Bench note: what activation did O=C(O)c1ccccc1Nc1ccccc1F show?
Solution: -0.29

Exercise: Bench note: what activation did N#CC(C#N)=Cc1cccn1-c1ccc(C(F)(F)F)cc1 show?
Solution: -0.29

Exercise: Bench note: what activation did CSc1cccc(NC(=O)C(=O)NCCc2ccccn2)c1 show?
Solution: -1.05

Exercise: Bench note: what activation did CCOC(=O)c1cc(CC)sc1NC(=O)c1cccnc1Oc1ccccc1 show?
Solution: 0.22

Exercise: Bench note: what activation did CC(=O)Nc1ccc(F)cc1F show?
Solution: 3.83

Exercise: Bench note: what activation did CC(C)(C)c1cc(C(=O)/C=C2/NC(=O)CS2)no1 show?
Solution: 0.5

Exercise: Bench note: what activation did CC(C)c1ccc(NNS(=O)(=O)c2ccc(Cl)c(Cl)c2)cc1 show?
Solution: -0.45

Exercise: Bench note: what activation did CCOC(=O)C(=CNc1cc(C(F)(F)F)ccc1NCc1ccccc1)C(=O)OCC show?
Solution: -0.25

Exercise: Bench note: what activation did CCOC(=O)CC(=O)CSc1nnc(N)s1 show?
Solution: 0

Exercise: Bench note: what activation did CC(=O)Nc1ccc(NC(=O)c2cc(C)ccc2[N+](=O)[O-])c(C)c1 show?
Solution: -0.09

Exercise: Bench note: what activation did CCSC(=O)NCc1ccccc1 show?
Solution: -0.05

Exercise: Bench note: what activation did CC(=O)N1C=CC(c2c[nH]c3ccccc23)C=C1 show?
Solution: -0.43

Exercise: Bench note: what activation did O=S(=O)(Oc1ncccc1C(F)(F)F)c1cccc(F)c1 show?
Solution: -0.36

Exercise: Bench note: what activation did Cc1ccc(S(=O)(=O)N/N=C/c2ccc(O)cc2O)cc1 show?
Solution: -0.7

Exercise: Bench note: what activation did COC(=O)c1scc(S(=O)(=O)Cc2ccco2)c1N/N=C(\C#N)S(=O)(=O)C(C)C show?
Solution: 0.15

Exercise: Bench note: what activation did CC(=O)Nc1cccc([N+](=O)[O-])c1 show?
Solution: 6.11

Exercise: Bench note: what activation did Fc1ccc(NC(=S)N2CCN=C2Nc2ccc(F)cc2)cc1 show?
Solution: -1.11

Exercise: Bench note: what activation did CC(C)S(=O)(=O)c1cscc1N/C=C(/C#N)C(=O)C1CC1 show?
Solution: 0

Exercise: Bench note: what activation did O=C1C(Nc2ccccc2)=CC(c2ccc([N+](=O)[O-])cc2)N1c1ccccc1 (stereo unspecified) show?
Solution: -0.41

Exercise: Bench note: what activation did CCOC(=O)CCC(=O)OC(C(=O)c1ccccc1)c1ccccc1 (stereo unspecified) show?
Solution: -0.16

Exercise: Bench note: what activation did O=C(O)CC1(CC(=O)Nc2ccccc2-n2cccn2)CCCCC1 show?
Solution: -0.3

Exercise: Bench note: what activation did Cc1ccc(/C=c2\sc3nc4ccccc4n3c2=O)o1 show?
Solution: -0.36

Exercise: Bench note: what activation did O=C(Nc1ccccc1)N1CCN(c2ncnc3sccc23)CC1 show?
Solution: -0.57

Exercise: Bench note: what activation did Cc1nc(-c2nnc(SCC(=O)c3ccc(F)cc3)n2C)cs1 show?
Solution: -0.64

Exercise: Bench note: what activation did O=C(CSc1nnc(-c2ccncc2)o1)N1CCc2ccccc21 show?
Solution: -0.94

Exercise: Bench note: what activation did Clc1ccc(C=NCc2cccnc2)c(Cl)c1 show?
Solution: -0.28

Exercise: Bench note: what activation did Cn1c(SCC(=O)c2ccc(Cl)cc2)nnc1-c1cnccc1C(F)(F)F show?
Solution: -0.25

Exercise: Bench note: what activation did N#Cc1c(-c2ccccc2)c(-c2ccccc2)n[nH]c1=O show?
Solution: -0.27

Exercise: Bench note: what activation did COc1cccc(NC(=S)NNC(=S)NC2CC3CCC2C3)c1 (stereo unspecified) show?
Solution: -0.54

Exercise: Bench note: what activation did O=C(Nc1ccccc1C(=O)NC1CCSC1)c1cccc(Cl)c1 (stereo unspecified) show?
Solution: -0.57

Exercise: Bench note: what activation did CCOC(=O)C(=CNc1ccc2n[nH]nc2c1)C(=O)OCC show?
Solution: -0.78

Exercise: Bench note: what activation did O=C1C=C(c2ccccc2)CN(C2CCCCC2)C1=O show?
Solution: -1.07

Exercise: Bench note: what activation did CNC(=S)NNC(=O)CSc1cccs1 show?
Solution: 1.08

Exercise: Bench note: what activation did Cc1oc(C(C)(C)C)cc1C(=O)NC1Cc2ccccc2C1 show?
Solution: -0.44

Exercise: Bench note: what activation did O=C(N/N=C/c1cccs1)C(=O)Nc1ccc(Cl)c(Cl)c1 show?
Solution: -0.5

Exercise: Bench note: what activation did O=S(=O)(Oc1ccc(Cl)c(Cl)c1)c1c(Cl)sc(Cl)c1Br show?
Solution: -0.59

Exercise: Bench note: what activation did Cc1ccc(OC(=O)c2cccc([N+](=O)[O-])c2)c(Br)c1 show?
Solution: 0.36

Exercise: Bench note: what activation did NC(=S)N/N=C\Cc1nnnn1-c1ccc(Cl)cc1 show?
Solution: 0.16

Exercise: Bench note: what activation did COc1ccc(C(=O)NNC(=O)c2c(OC)cc(C(F)(F)F)cc2C(F)(F)F)cc1 show?
Solution: 0.11

Exercise: Bench note: what activation did CC1CN(c2ccc(NC(=S)NCc3cccs3)cc2)CC(C)O1 (stereo unspecified) show?
Solution: -0.73

Exercise: Bench note: what activation did Cc1c(S(=O)(=O)N2CCOCC2)ccc(Cl)c1F show?
Solution: -1.27

Exercise: Bench note: what activation did COC(=O)c1ccccc1NC(=O)c1ccc(Oc2cc(Cl)cc(Cl)c2)o1 show?
Solution: -0.31

Exercise: Bench note: what activation did Cc1ccc(SCC(=O)Nc2ccc(F)cc2F)cc1 show?
Solution: 0.31

Exercise: Bench note: what activation did O=c1[nH]cc(Br)c(=O)[nH]1 show?
Solution: -0.83

Exercise: Bench note: what activation did Oc1ccccc1C=Nc1ccc(F)cc1 show?
Solution: -0.14

Exercise: Bench note: what activation did N#Cc1c(-c2cccs2)cc(-c2cccs2)nc1N show?
Solution: -0.55
